assayed.system: Tyrosine-protein phosphatase non-receptor type 1 (Rattus norvegicus)
Sequence (P20417 whole entry): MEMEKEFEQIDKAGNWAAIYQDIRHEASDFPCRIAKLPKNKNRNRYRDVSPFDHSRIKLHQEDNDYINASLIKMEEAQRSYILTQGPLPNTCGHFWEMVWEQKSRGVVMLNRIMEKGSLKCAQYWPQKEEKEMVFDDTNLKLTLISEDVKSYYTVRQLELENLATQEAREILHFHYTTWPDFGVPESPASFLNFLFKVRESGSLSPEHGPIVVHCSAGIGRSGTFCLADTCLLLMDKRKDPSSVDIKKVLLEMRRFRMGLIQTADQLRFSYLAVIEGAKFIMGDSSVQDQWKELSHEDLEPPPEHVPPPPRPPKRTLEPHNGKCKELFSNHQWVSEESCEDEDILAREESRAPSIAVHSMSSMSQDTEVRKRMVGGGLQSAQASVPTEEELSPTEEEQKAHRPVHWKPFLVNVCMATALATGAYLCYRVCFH
test: PTP1B Inhibition Assay
setup.conditions: pH 7.2; 22 °C
Description: Hydrolysis of substrate p-nitrophenyl phosphate was monitored on a 96-well microplate reader. Concentrations of PTP1B inhibitors that resulted in 50% reduction of enzyme activity (IC50) were derived by fitting reaction rates obtained in the presence and absence of compounds.
Where a SMILES comes first, the peptide text is derived from it. [ ]: non-standard residue; d: D form. sY = N[C@@H](Cc1ccc(OS(=O)(=O)O)cc1)C(=O)O; Nle = CCCC[C@H](N)C(=O)O
metric: Ki (µM)

a = CCCC[C@H](NC(=O)[C@H](Cc1ccc(OS(=O)(=O)O)cc1)NC(=O)[C@H](CC(=O)O)NC(C)=O)C(N)=O (Ac-Asp-[sY]-[Nle]-NH2)
b = CCCCCNC(=O)[C@H](Cc1ccc(OCC(=O)O)c(C(=O)O)c1)NC(=O)[C@H](Cc1ccccc1)NC(=O)Cn1[nH]ncc1=S
stdin: Compare Ki: is it lower for a or for b ? // respond with label for picked entry
stdout: b
(b: 0.12 µM, a: 5 µM)
